Assign IC50 to each entry below.
target: GID4 (Uniprot ID: Q81VV7, residues 124-289) (Homo sapiens)

# annotated cases, reported IC50 shown
Compound: COC1CCN(C(=O)c2n[nH]c3ccc(-c4ccc5ccnc(N)c5c4)cc23)CC1
Test result: < 500 nM
--
Compound: Nc1nccc2ccc(N3CCC(C(=O)N4CCCC4)C3)cc12 (stereo not drawn)
Test result: > 5000 nM

For each entry beneath this line, provide reported IC50.
1. CC(C)c1cc(N2CCCC(c3cnc4ccccn34)C2)nc(N)n1 (stereo not drawn)
2. CC(C)c1cc(N2CCNC(c3ccc(F)cc3Br)C2)nc(N)n1 (stereo not drawn)

1: < 500 nM; 2: < 500 nM
